System: alopecia in mice
Experiment: Animal experiment: therapeutic effect on alopecia in bilaterally ovariectomized mice after oral administration
Format: in vivo
Conditions: number of mice of 10 per group; ovariectomized female mice, oral 10 mg/kg/day, 4 weeks; cured = no difference with the normal group
Can you tell me Cured for the items I'm about to list?
Answer with the value's number alone.

IN: # get_value(readout='Cured', item= `CC(=O)/C(=N\Nc1ccccc1C(=O)O)C(=O)Nc1ccccc1` )
OUT: 10

IN: # get_value(readout='Cured', item= `CC(=O)/C(=N\Nc1ccccc1C(=O)O)C(=O)N1CCOCC1` )
OUT: 10

IN: # get_value(readout='Cured', item= `CCOC(=O)c1sc(NC(=O)/C(=N/Nc2ccc(F)cc2C(=O)O)C(C)=O)nc1C` )
OUT: 2

IN: # get_value(readout='Cured', item= `CCOC(=O)c1sc(NC(=O)/C(=N/Nc2c(C#N)cccc2C(=O)O)C(C)=O)nc1C` )
OUT: 8

IN: # get_value(readout='Cured', item= `CCOC(=O)c1sc(NC(=O)/C(=N/Nc2ccccc2C(=O)OC)C(C)=O)nc1C` )
OUT: 8

IN: # get_value(readout='Cured', item= `CC(=O)/C(=N\Nc1ccccc1C(=O)O)C(=O)Nc1cccc(O)n1` )
OUT: 4
